B1: EHEE_rd3_0053 (parent)
chain: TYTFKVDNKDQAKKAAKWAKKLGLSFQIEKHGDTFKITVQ

# Variants of: B1
# PROTOCOL_TEXT: folding stability dG (cDNA display proteolysis); higher = more stable
# CONDITIONS_USED: PBS, room temperature
Binned folding stability dG; ranges: range 1 (below 1 kcal/mol), range 2 (1 kcal/mol to below 2 kcal/mol), range 3 (2 kcal/mol or more)

VARIANT_LABEL	ASSIGNED_LABEL
V6H	range 1
A15R	range 2
F35Y	range 3

Please look at the following variant next.
Task: State the band of V6S
Result: range 2
